test system: NEK5; conditions: concentration: 1 μM, replicates: in singlicate; n = 1;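 also: KINOMEscan kinase panel screen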
Listing of recorded %Inh by entry.

>  <Molecule>
O=C(Nc1n[nH]c2cc(-c3ccoc3)ccc12)C1CC1 [SB-738481]

>  <System name>
NEK5

>  <%Inh>
0%

$$$$
>  <Molecule>
COc1cc(Nc2nccc(-c3c(-c4cccc(NC(=O)c5c(F)cccc5F)c4)nn4ncccc34)n2)cc(OC)c1OC [GSK327238]

>  <System name>
NEK5

>  <%Inh>
58%

$$$$
>  <Molecule>
CN1CCN(CCCNc2nccc(-c3c(-c4ccc(F)cc4)nn4cc(C(F)(F)F)ccc34)n2)CC1 [GW621581]

>  <System name>
NEK5

>  <%Inh>
0%

$$$$
>  <Molecule>
Cl.NC(=O)c1cccc(Nc2nccc(Nc3ccc(Oc4c(Cl)cccc4Cl)c(Cl)c3)n2)c1 [GW659009]

>  <System name>
NEK5

>  <%Inh>
26%

$$$$
>  <Molecule>
O=C(Nc1n[nH]c2nc(-c3ccc(O)cc3)ccc12)C1CC1 [SB-710363]

>  <System name>
NEK5

>  <%Inh>
0%

$$$$
>  <Molecule>
CNC(=O)c1ccccc1Nc1nc(Nc2ccc(N3CCOCC3)cc2)ncc1Cl.Cl [GSK1576028]

>  <System name>
NEK5

>  <%Inh>
100%

$$$$
>  <Molecule>
COCCOCCOc1cc2ncc3c4ccc(C#N)cc4[nH]c3c2cc1OC

>  <System name>
NEK5

>  <%Inh>
0%

$$$$

====

tested on: ALK; conditions: concentration: 1 μM, replicates: in singlicate; n = 1
Experimental endpoint: %Inh

>  <Compound>
Cc1occc1-c1ncc(OC[C@@H](N)Cc2c[nH]c3ccccc23)cc1-c1ccc2[nH]nc(C)c2c1.O=C(O)C(F)(F)F [GSK682037]

>  <System name>
ALK

>  <Experimental endpoint>
%Inh

>  <Result>
24%

$$$$
>  <Compound>
COc1cccc(C2=C(Nc3ccc(Cl)c(C(=O)O)c3)C(=O)NC2=O)c1 [SB-390769]

>  <System name>
ALK

>  <Experimental endpoint>
%Inh

>  <Result>
36%

$$$$
>  <Compound>
CSc1cccc2c(-c3ccncn3)c(-c3ccc(F)cc3)nn12 [GW514786]

>  <System name>
ALK

>  <Experimental endpoint>
%Inh

>  <Result>
29%

$$$$
>  <Compound>
COC(=O)Nc1nc2cc(Oc3ccc(NC(=O)Nc4cc(C(F)(F)F)ccc4F)cn3)ccc2[nH]1.Cl.Cl [GW681170]

>  <System name>
ALK

>  <Experimental endpoint>
%Inh

>  <Result>
6%

$$$$
>  <Compound>
Cl.Cl.NCC(NC(=O)c1cc(-c2ccccc2)c(-c2ccnc3[nH]ccc23)s1)c1ccccc1 (centres unmarked) [GSK1321561]

>  <System name>
ALK

>  <Experimental endpoint>
%Inh

>  <Result>
27%

$$$$
>  <Compound>
CCS(=O)(=O)c1ccc(OC)c(Nc2nccc(-c3c(-c4cccc(NC(=O)c5c(F)cccc5F)c4)nn4ncccc34)n2)c1 [GSK326180]

>  <System name>
ALK

>  <Experimental endpoint>
%Inh

>  <Result>
25%

$$$$
>  <Compound>
CCc1ccc(-c2ccc3c(c2)-c2c(cnn2C)S(=O)(=O)N3C)cc1

>  <System name>
ALK

>  <Experimental endpoint>
%Inh

>  <Result>
0%

$$$$
>  <Compound>
COc1cc(Nc2nccc(N3CCC(NC(=O)c4cc5ccccc5s4)C3)n2)cc(OC)c1OC (centres unmarked) [GSK1379760]

>  <System name>
ALK

>  <Experimental endpoint>
%Inh

>  <Result>
19%

$$$$

====

test system: CSNK1A1; conditions: concentration: 1 μM, replicates: in singlicate; n = 1
# binarize %Inh: threshold 7% inclusive, high side 1, low side -1

>  <Compound>
Cl.NC(=O)c1cccc(Nc2nccc(Nc3ccc(Oc4c(Cl)cccc4Cl)c(Cl)c3)n2)c1

>  <Class assignment>
1

$$$$
>  <Compound>
O=C(O)C(F)(F)F.O=C(O)C(F)(F)F.O=c1[nH]ccc2nc(N[C@@H]3CCCNC3)nc(Nc3ccc(S(=O)(=O)N4CCOCC4)cc3)c12

>  <Class assignment>
1

$$$$
>  <Compound>
CN(c1ccc(NC(=O)Nc2cc(C(F)(F)F)ccc2F)cc1)c1ccnc(Nc2ccc(S(N)(=O)=O)cc2)n1

>  <Class assignment>
1

$$$$
>  <Compound>
COc1cccc(NC(=O)NC2CCN(c3ccnc(Nc4cc(OC)c(OC)c(OC)c4)n3)C2)c1 (centres unmarked)

>  <Class assignment>
-1

$$$$
>  <Compound>
c1ccc(-c2n[nH]cc2Nc2ccnc3ccccc23)nc1

>  <Class assignment>
1

$$$$
>  <Compound>
Cn1cc(-c2ccc3c(c2)CCN3C(=O)Cc2cccc(F)c2)c2c(N)ncnc21

>  <Class assignment>
-1

$$$$
>  <Compound>
c1ccc(Oc2ccc(Nc3ccnc4cc(-c5ccc(CNCCN6CCOCC6)o5)ccc34)cc2)nc1

>  <Class assignment>
-1

$$$$

====

tested on: SIK; conditions: concentration: 1 μM, replicates: in singlicate; n = 1

>  <Compound>
Cn1cc(-c2[nH]c3cc(NC(=O)[C@H](N)C4CCCCC4)cc4c3c2C=NNC4=O)cn1

>  <%Inh>
90.8%

$$$$
>  <Compound>
Cl.Cl.NCC(NCc1ccc(-c2ccnc3[nH]ccc23)s1)c1ccccc1 (stereo not shown)

>  <%Inh>
5%

$$$$
>  <Compound>
Cc1ccc(S(=O)(=O)Nc2ccc(Nc3nccc(Nc4cccc5[nH]ncc45)n3)cc2)cc1

>  <%Inh>
36%

$$$$
>  <Compound>
Fc1ccc(-c2ncn(C3CCNCC3)c2-c2ccnc(Oc3ccc(-c4ccccc4)cc3)n2)cc1

>  <%Inh>
12%

$$$$

====

test system: NEK4; conditions: concentration: 1 μM, replicates: in singlicate; n = 1
Listing of recorded %Inh by entry.

>  <Compound>
CC(=O)N1CCN(c2ccc(Nc3nccc(-c4sc(C(C)C)nc4-c4cccc(NS(=O)(=O)c5cccc(Cl)c5)c4)n3)cn2)CC1 [GSK1660437]

>  <%Inh (%)>
6

$$$$
>  <Compound>
CN(c1ccc(NC(=O)Nc2cc(C(F)(F)F)ccc2F)cc1)c1ccnc(Nc2ccc(S(N)(=O)=O)cc2)n1 [GW809893]

>  <%Inh (%)>
26

$$$$
>  <Compound>
Cl.NC(=O)c1cccc(Nc2nccc(Nc3ccc(Oc4c(Cl)cccc4Cl)c(Cl)c3)n2)c1 [GW659009]

>  <%Inh (%)>
3

$$$$
>  <Compound>
CNC(=O)c1ccccc1Nc1nc(Nc2ccc(N3CCOCC3)cc2)ncc1Cl.Cl [GSK1576028]

>  <%Inh (%)>
65

$$$$
>  <Compound>
CCCCc1nn2ncccc2c1-c1ccnc(Nc2ccc(N3CCN(C)CC3)cc2)n1 [GW684941]

>  <%Inh (%)>
14

$$$$
>  <Compound>
O=C(Nc1cccc(Oc2ccc3nc(NC(=O)C4CC4)cn3n2)c1)c1ccccc1C(F)(F)F

>  <%Inh (%)>
0

$$$$
>  <Compound>
CCS(=O)(=O)c1ccc(OC)c(Nc2nccc(-c3c(-c4cccc(NC(=O)c5c(F)cccc5F)c4)nn4ncccc34)n2)c1 [GSK326180]

>  <%Inh (%)>
6

$$$$

====

Listing of recorded %Inh by entry.
system: BIKE; construct: gene BMP2K; details: concentration: 1 μM, replicates: in singlicate; n = 1

>  <Molecule>
O=C(NC1CCN(c2ccnc(Nc3ccc(F)cc3)n2)C1)c1cc2ccccc2s1 (centres unmarked) [GSK1379716]

>  <%Inh>
26%

$$$$
>  <Molecule>
CN1CCN(CCCNc2nccc(-c3c(-c4ccc(F)cc4)nn4cc(C(F)(F)F)ccc34)n2)CC1 [GW621581]

>  <%Inh>
11%

$$$$
>  <Molecule>
Cn1cc(-c2ccc3c(c2)CCN3C(=O)Cc2cccc(Cl)c2)c2c(N)ncnc21 [GSK2606590]

>  <%Inh>
18%

$$$$
>  <Molecule>
COc1ccc(Nc2nccc(NCCNC(=O)c3cc4ccccc4s3)n2)cc1 [GSK1379896]

>  <%Inh>
4%

$$$$
>  <Molecule>
COc1cccc(-c2ccc3c(NC(=O)C4CC4)n[nH]c3n2)c1 [SB-710903]

>  <%Inh>
0%

$$$$

====

Listing of recorded %Inh by entry.
tested on: ADCK3; construct: gene CABC1; conditions: concentration: 1 μM, replicates: in singlicate; n = 1
Experimental endpoint: %Inh (%)

>  <Smiles notation>
O=C(Nc1ccccc1F)NC1CCN(c2ccnc(Nc3ccc(F)cc3)n2)CC1

>  <Numeric result>
1

$$$$
>  <Smiles notation>
CC(=O)N1CCN(c2ccc(Nc3nccc(-c4sc(C(C)C)nc4-c4cccc(NS(=O)(=O)c5cccc(Cl)c5)c4)n3)cn2)CC1

>  <Numeric result>
73

$$$$
>  <Smiles notation>
Clc1ccc(-c2nn3ncccc3c2-c2ccnc(Nc3ccc4c(c3)OCCO4)n2)cc1

>  <Numeric result>
16

$$$$
>  <Smiles notation>
COc1cc(Nc2nccc(-c3c(-c4cccc(NC(=O)c5c(F)cccc5F)c4)nn4ccccc34)n2)cc(OC)c1OC

>  <Numeric result>
10

$$$$
